Test system: MIA PaCa-2 cells
test-details: Gemcitabine Combination Cell Assay (Cell Titer Glo)
Format: cell-based
run-parameters: approximate concentration of Chk1 inhibitor that results in a two-fold reduction in the IC50 of gemcitabine alone, MIA PaCa-2 cells, 72 h
Procedure: Gemcitabine Combination Cell Assay Exponentially growing MIA PaCa-2 (ATCC CRL-1420) cells are treated with trypsin to remove cells from the plate surface. […] Luminescence (relative light units, RLU) is recorded using a BMG Polarstar Omega plate reader. […] The IC50 for gemcitabine alone and at each concentration of Chk1 is determined using a four-parameter non-linear regression curve fit. […]
Counter-ions that a name gives are not always drawn.
Property: 2xLS; scope: individual compounds
measured-attribute: 2xLS (nM)

{"compound": "COc1cc(C2CCN(C)CC2(F)F)ccc1-c1cc(Nc2cnc(C#N)cn2)n[nH]1 (stereo not drawn) [Example 97, hydrochloride]", "measured-attribute": "2xLS", "inequality-sign": "=", "reported": 10}
{"compound": "CCN1CCC(c2ccc(-c3cc(Nc4cnc(C#N)cn4)n[nH]3)c(OC)c2)C(F)(F)C1 (stereo not drawn)", "measured-attribute": "2xLS", "inequality-sign": "=", "reported": 10}
{"compound": "CCN1CCC(Cc2ccc(-c3cc(Nc4cnc(C#N)cn4)n[nH]3)c(OC)c2)CC1 [Example 143, hydrochloride]", "measured-attribute": "2xLS", "inequality-sign": "<", "reported": 10}
{"compound": "CCN1CCC(Nc2ccc(-c3cc(Nc4cnc(C#N)cn4)n[nH]3)c(OC)c2)CC1", "measured-attribute": "2xLS", "inequality-sign": "<", "reported": 3}
{"compound": "COc1cc(N2CCN(C)CC2)cc(OC)c1-c1cc(Nc2cnc(C#N)cn2)n[nH]1", "measured-attribute": "2xLS", "inequality-sign": "=", "reported": 3}
{"compound": "COc1cc(N2CCCN(C(C)C)CC2)ccc1-c1cc(Nc2cnc(C#N)cn2)n[nH]1", "measured-attribute": "2xLS", "inequality-sign": "<", "reported": 3}
{"compound": "COc1cc(CNc2ccccn2)ccc1-c1cc(Nc2cnc(C#N)cn2)n[nH]1", "measured-attribute": "2xLS", "inequality-sign": "=", "reported": 3}
{"compound": "COc1cc(CNCCN2CCOCC2)ccc1-c1cc(Nc2cnccn2)n[nH]1", "measured-attribute": "2xLS", "inequality-sign": "=", "reported": 1000}
{"compound": "COc1cc(OCC2CCCN2)ccc1-c1cc(Nc2cnc(C#N)cn2)n[nH]1 (stereo not drawn)", "measured-attribute": "2xLS", "inequality-sign": "=", "reported": 3}
{"compound": "COc1cc(C2CCN(C)CC2)ccc1-c1cc(Nc2cnc(C)cn2)n[nH]1", "measured-attribute": "2xLS", "inequality-sign": "=", "reported": 1000}
{"compound": "CCN1CCC(CN(C)c2ccc(-c3cc(Nc4cnc(C#N)cn4)n[nH]3)c(OC)c2)CC1", "measured-attribute": "2xLS", "inequality-sign": "<", "reported": 3}
{"compound": "COc1cc(CNC2CC2)ccc1-c1cc(Nc2cnc(C#N)cn2)n[nH]1", "measured-attribute": "2xLS", "inequality-sign": "<", "reported": 3}
{"compound": "COc1cc(C2CCOCC2)ccc1-c1cc(Nc2cnc(C#N)cn2)n[nH]1", "measured-attribute": "2xLS", "inequality-sign": "=", "reported": 100}
{"compound": "CCN1CCC(c2ccc(-c3cc(Nc4cnc(C#N)cn4)n[nH]3)c(OC)c2)C(F)C1 (stereo not drawn) [Example 87, hydrochloride]", "measured-attribute": "2xLS", "inequality-sign": "=", "reported": 10}
{"compound": "COc1cc(CN[C@H]2CCOC2)ccc1-c1cc(Nc2cnc(C#N)cn2)n[nH]1", "measured-attribute": "2xLS", "inequality-sign": "=", "reported": 3}
{"compound": "COc1cc(OC[C@H]2CCCN2C(C)C)ccc1-c1cc(Nc2cnc(C#N)cn2)n[nH]1", "measured-attribute": "2xLS", "inequality-sign": "<", "reported": 3}
{"compound": "COc1cc(N2CCN(C)CC2)ccc1-c1cc(Nc2cnc(C#N)cn2)n[nH]1 [Example 22, hydrochloride]", "measured-attribute": "2xLS", "inequality-sign": "<", "reported": 3}
{"compound": "COc1cc(C2(F)CCNCC2)ccc1-c1cc(Nc2cnc(C#N)cn2)n[nH]1", "measured-attribute": "2xLS", "inequality-sign": "=", "reported": 10}
{"compound": "COc1cc(CNCC(C)C)ccc1-c1cc(Nc2cnc(C#N)cn2)n[nH]1", "measured-attribute": "2xLS", "inequality-sign": "=", "reported": 3}
{"compound": "COc1cc(C2CCN(C)CC2)ccc1-c1cc(Nc2cnc(C#N)cn2)n[nH]1 [Example 11, hydrochloride]", "measured-attribute": "2xLS", "inequality-sign": "=", "reported": 3}
{"compound": "COc1cc(CNCC2CCN(C(=O)C3CC3)CC2)ccc1-c1cc(Nc2cnc(C#N)cn2)n[nH]1", "measured-attribute": "2xLS", "inequality-sign": "<", "reported": 3}
